- System: pLai RLuc reporter virus
- TEST SUMMARY: HIV MT-4 serum shift antiviral reporter assay
- Type: cell-based
- PARTICULARS: Human immunodeficiency virus 1, MT4, 72 h, read-out: Antiviral Serum Shift RLuc 50% HS
PARAMETER: log10 of EC50 (log10 of the value in nM)
Kindly note that the scale is log10 and the underlying EC50 is in nM.

O=C(NCc1ccc(F)c(Cl)c1F)c1c2n3c(c(O)c1=O)C(=O)N1CCCC[C@@]3(C[C@H]2O)C1 (single isomer, unassigned) [Compound 14-1]    1.41

**Query** I would be grateful if you could share the reported log10 of EC50 for CO[C@H]1CC[C@H](C)N2C[C@]13CCc1c(C(=O)NCc4c(F)cc(F)cc4F)c(=O)c(O)c(n13)C2=O [Compound 23-2] .
**Result** 1.32

**Query** I would be grateful if you could share the reported log10 of EC50 for O=C(NCc1c(F)cc(F)cc1F)c1c2n3c(c(O)c1=O)C(=O)N1CCCC[C@]3(C[C@H]2O)C1 (single isomer, unassigned) [Compound 9-1] .
**Result** 2.30

**Query** I would be grateful if you could share the reported log10 of EC50 for O=C(NCc1c(F)cc(F)cc1F)c1c2n3c(c(O)c1=O)C(=O)N1CCCC[C@@]3(C[C@@H]2O)C1 (single isomer, unassigned) [Compound 9-4] .
**Result** 0.72

**Query** I would be grateful if you could share the reported log10 of EC50 for O=C(NCc1c(F)cc(F)cc1F)c1c2n3c(c(O)c1=O)C(=O)N1CCCC[C@]3(C1)[C@@H](O)[C@@H]2O (single isomer, unassigned) [Compound 11-4] .
**Result** 1.31

**Query** I would be grateful if you could share the reported log10 of EC50 for O=C(NCc1c(F)cc(F)cc1F)c1c2n3c(c(O)c1=O)C(=O)N1CCCC[C@@]3(C1)[C@H](O)[C@H]2O (single isomer, unassigned) [Compound 11-1] .
**Result** 0.59

**Query** I would be grateful if you could share the reported log10 of EC50 for O=C(NCc1c(F)cc(F)cc1F)c1c2n3c(c(O)c1=O)C(=O)N1CCCC[C@@]3(C[C@H]2O)C1 (single isomer, unassigned) [Compound 9-2] .
**Result** 1.53

###

Collected EC50 values appear next to each entry.
- System: pLai RLuc reporter virus
- TEST SUMMARY: HIV MT-4 serum shift antiviral reporter assay
- Format: cell-based
- PARTICULARS: Human immunodeficiency virus 1, MT4, 72 h, read-out: Antiviral Serum Shift RLuc CCM
Express it in pM; write the number only.

**Query** I would be grateful if you could share the reported EC50 for O=C(NCc1ccc(F)cc1F)c1c2n3c(c(O)c1=O)C(=O)N1CCCC[C@]3(C[C@@H]2O)C1 (single isomer, unassigned) .
**Result** 632

**Query** I would be grateful if you could share the reported EC50 for O=C(NCc1cccc(Cl)c1F)c1c2n3c(c(O)c1=O)C(=O)N1CCCC[C@@]3(CC2)C1 .
**Result** 278

**Query** I would be grateful if you could share the reported EC50 for O=C1c2c(O)c(=O)c(-c3nnc(Cc4c(F)cc(F)cc4F)s3)c3n2C2(CCCCN1C2)CC3 (centres unmarked) .
**Result** 997

**Query** I would be grateful if you could share the reported EC50 for C[C@]1(O)C[C@@]23CCCCN(C2)C(=O)c2c(O)c(=O)c(C(=O)NCc4c(F)cc(F)cc4F)c1n23 (single isomer, unassigned) .
**Result** 290

**Query** I would be grateful if you could share the reported EC50 for O=C(NCc1c(F)cc(F)cc1F)c1c2n3c(c(O)c1=O)C(=O)N1CCCC[C@@]3(C[C@H]2O)C1 (single isomer, unassigned) .
**Result** 347

**Query** I would be grateful if you could share the reported EC50 for O=C(NCc1ccc(F)cc1F)c1c2n3c(c(O)c1=O)C(=O)N1CCCC[C@@]3(C[C@@H]2O)C1 (single isomer, unassigned) .
**Result** 405

**Query** I would be grateful if you could share the reported EC50 for O=C(NCc1c(F)cc(F)cc1F)c1c2n3c(c(O)c1=O)C(=O)N1CCCC[C@]3(C[C@@H]2F)C1 (single isomer, unassigned) .
**Result** 429

**Query** I would be grateful if you could share the reported EC50 for O=C(NCc1ccc(F)cc1F)c1c2n3c(c(O)c1=O)C(=O)N1CCCC[C@@]3(CC2)C1 .
**Result** 175

###

- TEST SUMMARY: Cytotoxicity assay in MT-4 cells
- Type: cell-based
- PARTICULARS: human; uninfected MT-4 cells, 5 days incubation, Cell Titer Glo
Collected CC50 at 5 days values appear next to each entry.
Express it in µM; write the number only.

O=C1c2c(O)c(=O)c(-c3nnc(Cc4c(F)cc(F)cc4F)s3)c3n2C2(CCCCN1C2)CC3 (stereo not shown)    3.8

**Query** I would be grateful if you could share the reported CC50 at 5 days for O=C(NCc1ccc(F)cc1F)c1c2n3c(c(O)c1=O)C(=O)N1CCCC[C@@]3(CC2)C1 .
**Result** 4.94

**Query** I would be grateful if you could share the reported CC50 at 5 days for CO[C@@H]1c2c(C(=O)NCc3c(F)cc(F)cc3F)c(=O)c(O)c3n2[C@]2(CCCCN(C2)C3=O)[C@H]1OC (single isomer, unassigned) .
**Result** 24.7

**Query** I would be grateful if you could share the reported CC50 at 5 days for CO[C@H]1C[C@@]23CCCCN(C2)C(=O)c2c(O)c(=O)c(C(=O)NCc4c(F)cc(F)cc4F)c1n23 (single isomer, unassigned) .
**Result** 14.8

###

Collected pEC50 values appear next to each entry.
- Test system: pLai RLuc reporter virus
- TEST SUMMARY: HIV MT-4 serum shift antiviral reporter assay
- Assay type: cell-based
- PARTICULARS: Human immunodeficiency virus 1, MT4, 72 h, read-out: Antiviral Serum Shift RLuc CCM
# reply with the number alone; pEC50 is -log10 of concentration in mol/L

O=C(NCc1ccc(F)cc1F)c1c2n3c(c(O)c1=O)C(=O)N1CCCC[C@@]3(C[C@H]2O)C1 (single isomer, unassigned)    9.38
C[C@@]1(O)C[C@]23CCCCN(C2)C(=O)c2c(O)c(=O)c(C(=O)NCc4c(F)cc(F)cc4F)c1n23    9.89
O=C(NCc1c(F)cc(F)cc1F)c1c2n3c(c(O)c1=O)C(=O)N1CCCC[C@@]3(C1)[C@H](O)[C@H]2O (single isomer, unassigned)    8.94
CO[C@H]1C[C@]23CCCCN(C2)C(=O)c2c(O)c(=O)c(C(=O)NCc4c(F)cc(F)cc4F)c1n23 (single isomer, unassigned)    8.94
O=C(NCc1ccc(F)cc1F)c1c2n3c(c(O)c1=O)C(=O)N1CCCC[C@]3(CC2)C1    9.14

**Query** Give pEC50 (pLai RLuc reporter virus) of the following compound: C[C@H]1C=CC[C@]23CCc4c(C(=O)NCc5c(F)cc(F)cc5F)c(=O)c(O)c(n42)C(=O)N1C3
**Result** 9.51

**Query** Give pEC50 (pLai RLuc reporter virus) of the following compound: O=C(NCc1c(F)cc(F)cc1F)c1c2n3c(c(O)c1=O)C(=O)N1CCCC[C@@]3(CC2)C1
**Result** 9.52

**Query** Give pEC50 (pLai RLuc reporter virus) of the following compound: O=C(NCc1ccc(F)cc1F)c1c2n3c(c(O)c1=O)C(=O)N1CCCC[C@]3(C[C@H]2O)C1 (single isomer, unassigned)
**Result** 9.15

**Query** Give pEC50 (pLai RLuc reporter virus) of the following compound: O=C(NCc1c(F)cc(F)cc1F)c1c2n3c(c(O)c1=O)C(=O)N1CCCC[C@]3(C[C@@H]2O)C1 (single isomer, unassigned)
**Result** 9.42

**Query** Give pEC50 (pLai RLuc reporter virus) of the following compound: O=C(NCc1c(F)cc(F)cc1F)c1c2n3c(c(O)c1=O)C(=O)N1CCCC[C@]3(C1)[C@H](O)[C@H]2O (single isomer, unassigned)
**Result** 8.82

**Query** Give pEC50 (pLai RLuc reporter virus) of the following compound: C[C@H]1C=CC[C@]23C[C@@H](O)c4c(C(=O)NCc5c(F)cc(F)cc5F)c(=O)c(O)c(n42)C(=O)N1C3 (single isomer, unassigned)
**Result** 9.59

**Query** Give pEC50 (pLai RLuc reporter virus) of the following compound: O=C(NCc1c(F)cc(F)cc1F)c1c2n3c(c(O)c1=O)C(=O)N1CCCC[C@@]3(C[C@@H]2O)C1 (single isomer, unassigned)
**Result** 9.41
